# Assay Name: reversal of MRP1-mediated doxorubicin resistance, pilot screen, H69AR cells, doxorubicin co-treatment (AID 601)
# Experimental Conditions: H69AR cells, CellTiter-Glo, 72 h; compound alone cytotoxicity; at 10 µM
Entries whose viability is below 90% take fulfilled; entries at or above 90% take not fulfilled.

[
  {
    "Compound": "N#Cc1c(NC(=O)COC(=O)C2CC3C=CC2C3)oc(-c2ccccc2)c1-c1ccccc1 (stereo not drawn)",
    "Class Name": "fulfilled"
  },
  {
    "Compound": "CC(C)(C)OC(=O)N1CCOCCOCCN(C(=O)OC(C)(C)C)CCOCCOCC1",
    "Class Name": "not fulfilled"
  }
]

-- ask Given the entry CCN(CC)c1ccc2c(C)c(-c3ccc(N)cc3)c(=O)oc2c1 , would its reported viability be below 90%?
-- reply fulfilled

-- ask A record lists O=C(Cc1ccccc1)Nc1ccc(CN2CCOCC2)cc1 . Is its viability below 90%?
-- reply not fulfilled

-- ask For O=C(NCc1ccco1)c1cc2c(s1)CSC2 , is the recorded viability below the cut-off of 90%?
-- reply fulfilled

-- ask Item Cc1n[nH]c(C)c1S(=O)(=O)Nc1ccc2c(c1)OCCO2 : viability beneath 90%, strictly?
-- reply not fulfilled

-- ask Here's an entry: O=C1OC(N2CCN(c3ccccn3)CC2)c2ccccc21 (stereo not drawn) . Is its viability below 90%?
-- reply not fulfilled

-- ask hey, is viability for CCn1cc(C(=O)N2CCN(C(=O)c3ccco3)CC2)c2cc(OC)c(OC)cc2c1=O lower than 90% or not?
-- reply not fulfilled

-- ask Please determine if Nc1nc(Nc2cccc3ccccc23)nc(C2CCCC2=O)n1 (stereo not drawn) is below 90% in terms of viability.
-- reply fulfilled

-- ask viability strictly < 90% for this compound? CCOC(=O)CC(=O)c1cc(OC)c(OC)c(OC)c1
-- reply not fulfilled

-- ask Would you kindly verify if viability of Cn1c(NCc2cccc(Br)c2)nc2ccccc21 is strictly less than 90%?
-- reply fulfilled

-- ask Does COc1cc(CC(=O)Oc2ccc3c(c2)OCO3)cc(OC)c1OC have viability strictly under 90%?
-- reply fulfilled

###

# reported differential viability (reversal); entries follow
# Assay Name: reversal of MRP1-mediated doxorubicin resistance, pilot screen, H69AR cells, doxorubicin co-treatment (AID 601)
# Experimental Conditions: H69AR cells + 2 uM doxorubicin, CellTiter-Glo, 72 h; at 10 µM; stronger effect = higher value
Answer format: numeric, % implied, no suffix.

Worked examples follow.
[
  {
    "Compound": "CC(O)CN(Cc1cccc(Cl)c1)CC(C)O (stereo not given)",
    "differential viability (reversal) [%]": -0.905
  },
  {
    "Compound": "COc1ccc(-n2nc(C(=O)NCC(=O)NCC3CCCO3)c3ccccc3c2=O)cc1 (stereo not given)",
    "differential viability (reversal) [%]": -6.73
  },
  {
    "Compound": "Cc1cc(C(F)(F)F)nc(SCC(=O)NC2=NC(=O)C(C)S2)n1 (stereo not given)",
    "differential viability (reversal) [%]": 16.8
  },
  {
    "Compound": "O=C(Nc1nc(-c2ccc(S(=O)(=O)N3CCCCCC3)cc2)cs1)c1cccs1",
    "differential viability (reversal) [%]": -4.63
  },
  {
    "Compound": "CCCCOC(=O)C1=C(C)Nc2ncnn2C1c1cccc(OC)c1OC (stereo not given)",
    "differential viability (reversal) [%]": 7.84
  },
  {
    "Compound": "CC(=O)O[C@@]12CO[C@@H]1C[C@H](O)[C@@]1(C)C(=O)[C@H](O)C3=C(C)[C@@H](OC(=O)[C@H](O)[C@@H](NC(=O)OC(C)(C)C)c4ccccc4)C[C@](O)([C@@H](OC(=O)c4ccccc4)[C@H]21)C3(C)C",
    "differential viability (reversal) [%]": -79.6
  }
]

-- ask What does the record list as differential viability (reversal) for Cc1cccc(OCC(=O)N2CCC(c3ccccc3)C2)c1 (stereo not given) ?
-- reply 1.84

-- ask May I ask what differential viability (reversal) has been recorded for Cc1cc(C(=O)N2CCCc3ccccc32)no1 ?
-- reply 14.4

-- ask What value of differential viability (reversal) has been recorded for this entry: CCCc1ccc(Oc2cn[nH]c2-c2ccc(O)c(C)c2O)cc1
-- reply -26.3

-- ask Find the recorded differential viability (reversal) belonging to C=CCN(CC=C)C(=O)Nc1cc(Cl)ccc1OC and report it.
-- reply 0

###

List of viability values.
# Assay Name: reversal of MRP1-mediated doxorubicin resistance, pilot screen, H69AR cells, doxorubicin co-treatment (AID 601)
# Experimental Conditions: H69AR cells + 2 uM doxorubicin, CellTiter-Glo, 72 h; measured here: viability with 2 uM doxorubicin; at 10 µM; stronger effect = lower value
// note: answer is a bare numeric in %

[
  {
    "Compound": "Nc1c(C(=O)NCc2ccco2)nnn1Cc1ccccc1",
    "viability [%]": 95.1
  },
  {
    "Compound": "Cc1cccc(-n2ncc(C#N)c2N)c1",
    "viability [%]": 100
  },
  {
    "Compound": "Cc1c(NC(=O)C2CCCNC2=O)c(=O)n(-c2ccccc2)n1C (stereo unspecified)",
    "viability [%]": 107
  }
]

-- ask Sample CC(=O)Nc1cc(NC(C)=O)cc(C(=O)OCC(=O)N2CC(C)OC(C)C2)c1 (stereo unspecified) — what was its viability?
-- reply 94.1

-- ask What value of viability has been reported for the following compound? Cn1cccc1-c1nc2ccc(NC(=O)c3ccco3)cc2[nH]1
-- reply 81.4

-- ask // returns reported viability for input Cc1cc(-n2c(C)cc(C(=O)CSc3nnnn3-c3ccc(Cl)cc3)c2C)no1
-- reply 44.3

###

# Assay Name: SK-BR-3 cell growth inhibitors, pilot screen, 24 h, human (AID 572);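 also: compound exposure lasted between 18 and 24 h rather than exactly 24 h; 100% = carrier-treated control wells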
# Experimental Conditions: SK-BR-3 viability, CellTiter-Glo luminescence, at 10 µM, stronger effect = lower value
Label t when viability is strictly below 90%; otherwise label f.

[
  {
    "Molecule": "CCOC(=O)Cc1csc(NC(=O)CSc2nnc(C(C)C)n2CC)n1",
    "Class Name": "f"
  }
]

-- ask For CCN1CCN(c2c(Cl)cccc2NC(=O)c2ccc3c(c2)OCCO3)CC1 , is the recorded viability below the cut-off of 90%?
-- reply t

-- ask Here's an entry: N#CC1=C(N)Oc2c(ccc3cccnc23)C1c1cccnc1 (stereo not given) . Is its viability below 90%?
-- reply f

-- ask Is viability strictly under 90% for the entry CCOC(=O)c1[nH]c2ccc(F)cc2c1NC(=O)C(C)N1CCc2cc(OC)c(OC)cc2C1 (stereo not given) ?
-- reply f

-- ask Would you kindly verify if viability of Cc1cc(=O)oc2cc(OCC(=O)OCC(=O)N3CCc4ccccc43)ccc12 is strictly less than 90%?
-- reply f

-- ask State whether 90% exceeds viability recorded for Cc1ccc2cc(C(c3nnnn3CC3CCCO3)N3CCc4ccccc4C3)c(=O)[nH]c2c1 (stereo not given) .
-- reply t

-- ask Lab note: confirm whether the reported viability for this molecule is below 90%, equality not counting. molecule: CCCC(=O)Nc1ccc(OCC(=O)OC)cc1
-- reply f

-- ask Is it true that viability reported for Cc1ccc(-n2nc3cc(Cl)c(NC(=O)c4ccco4)cc3n2)cc1 is less than 90%?
-- reply f

-- ask Is 90% strictly greater than the molecule's reported viability? molecule: CN(C)CC(C(=O)c1ccccc1)c1ccccc1 (stereo not given)
-- reply t

-- ask Regarding N#Cc1ccccc1Cn1c(=O)n(Cc2ccc(C(=O)NCc3ccco3)cc2)c(=O)c2ccccc21 , kindly confirm whether its viability is beneath 90%.
-- reply t

###

# Assay Name: reversal of MRP1-mediated doxorubicin resistance, pilot screen, H69AR cells, doxorubicin co-treatment (AID 601)
# Experimental Conditions: H69AR cells + 2 uM doxorubicin, CellTiter-Glo, 72 h; at 10 µM; stronger effect = higher value
Measure: differential viability (reversal) (%)
Dear colleague, please return just the value in %, with no unit written.

Some solved cases for reference:
[
  {
    "Molecule": "Cc1ccccc1Nc1nc(N)nc(CSCc2c(C)noc2C)n1",
    "Value Observed": -1.78
  },
  {
    "Molecule": "COC(=O)c1[nH]c(C)c(/C(O)=C2\\C(=O)C(=O)N(CCCN3CCOCC3)C2c2ccccn2)c1C (centres undefined)",
    "Value Observed": 7.94
  },
  {
    "Molecule": "Cc1ccc(C)c(C(=O)CC2(O)C(=O)Nc3ccccc32)c1 (centres undefined)",
    "Value Observed": 17.1
  }
]

Now consider a different molecule.
-- ask Any idea what differential viability (reversal) was measured for O=C(NCN1CCCCC1)c1cccnc1 ?
-- reply -0.935

###

# Assay Name: growth inhibitors of H69AR lung tumor, primary screen, human, duplicate replicates (AID 580);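 also: 100% = mean luminescence of untreated wells and 0% = no signal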
# Experimental Conditions: H69AR lung tumor cells viability, ATP luminescence, 72 h; at 10 µM; stronger effect = lower value
Measure: viability (%)
Unit % implied. Number only.

[
  {
    "Molecule": "CC(=O)Nc1ccc(NS(=O)(=O)c2ccc(Cl)c(C(=O)O)c2)cc1",
    "viability [%]": 103
  },
  {
    "Molecule": "CCc1ccc2[nH]c(=O)c(C(c3nnnn3CC3CCCO3)N3CCCc4ccccc43)cc2c1 (stereo not given)",
    "viability [%]": 91.8
  },
  {
    "Molecule": "O=C(CCCSc1nc2ccccc2s1)NC1=NCCS1",
    "viability [%]": 93.7
  }
]

-- ask Suppose we examine the molecule Cc1[nH]c2ccc(F)cc2c(=O)c1SC(F)(F)C(F)C(F)(F)F (stereo not given) ; what viability value has been reported?
-- reply 83.3

-- ask Please look up its viability: CCN(CC)CCN1C(=O)C(=O)/C(=C(/O)c2ccc(OC(C)C)cc2)C1c1ccncc1 (stereo not given)
-- reply 91.1

-- ask So what does the record say about viability for Cc1cccc2cc(C#N)c(NCCNC(=O)NC3CCCCC3)nc12 ?
-- reply 75.1

-- ask Requested field: viability. Item: CCN(CC(=O)Nc1ccc2c(c1)OCCO2)Cc1cc(=O)oc2cc(C)c(C)cc12
-- reply 73.8
